The entries below come with measured EC50 (cAMP reporter) values attached.
target: GLP-1 receptor (UniProt P43220 24-463, limits assumed); assay: cell-based or functional assay
Sequence (P43220 24-463 limits assumed): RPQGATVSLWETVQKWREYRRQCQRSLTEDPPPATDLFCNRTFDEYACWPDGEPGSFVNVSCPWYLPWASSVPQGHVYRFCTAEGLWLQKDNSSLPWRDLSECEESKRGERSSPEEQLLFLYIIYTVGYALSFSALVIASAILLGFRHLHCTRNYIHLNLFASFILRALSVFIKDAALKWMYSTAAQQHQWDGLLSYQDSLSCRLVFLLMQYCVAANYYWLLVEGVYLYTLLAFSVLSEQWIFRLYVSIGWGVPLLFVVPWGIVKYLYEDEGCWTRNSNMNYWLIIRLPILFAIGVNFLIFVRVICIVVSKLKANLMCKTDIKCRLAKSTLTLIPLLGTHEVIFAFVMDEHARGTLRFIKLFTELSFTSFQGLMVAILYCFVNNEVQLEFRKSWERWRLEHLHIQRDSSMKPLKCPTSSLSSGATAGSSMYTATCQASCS
*1 amine or outer side, *2 acyl side, *3 side chain or, on linkers, in order; H or OH if unused. Where no end group is shown, it is not given here. Side-chain parts run from the residue outwards. [ ]: non-standard residue; d: D form. The star is where a group is joined. Palmitoyl = CCCCCCCCCCCCCCCC(=O)*; Suc = O=C(CCC(=O)[*:2])[*:1]; Aib = CC(C)(N)C(=O)O; βAla = NCCC(=O)O
Provide only the numeric value, understood in pM.

Would you please look over these solved cases?
| BINDER | EC50 (cAMP reporter) / pM |
| --- | --- |
| YXEGTFTSDXSIYLDKQAAXEFVNWLLAGGPSSGAPPPS (aib at 2 and 20; 4-aminoPhe at 10, F(4amino-succinoylC16); NH2) [peptide of SEQ ID NO: 144] | 4 |
| Y[Aib]EGTFTSDYSIYLDKQAA[Aib]EFVNWLLAGGPSSGAPPPSK([Suc-C18])G-NH2 [peptide of SEQ ID NO: 142] | 4 |

Consider Y[Aib]EGTFTSDYSIYLDKQAA[Aib]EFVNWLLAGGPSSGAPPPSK(Palmitoyl)G-NH2 [peptide of SEQ ID NO: 139] . Its measured EC50 (cAMP reporter) is 5

Consider Y[Aib]EGTFTSDYSIYLDKQAA[Aib]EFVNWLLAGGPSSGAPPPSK([Suc-Palmitoyl])G-NH2 [peptide of SEQ ID NO: 140] . Its measured EC50 (cAMP reporter) is 1

Consider YXEGTFTSDXSIYLDKQAAXEFVNWLLAGGPSSGAPPPS (aib at 2 and 20; 4-aminoPhe at 10 acylated F(4-aminoγEγEC16); NH2) [peptide of SEQ ID NO: 143] . Its measured EC50 (cAMP reporter) is 2

Consider Y[Aib]EGTFTSDYSIYLDKQAA[Aib]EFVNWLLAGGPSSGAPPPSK([βAla-Suc-Palmitoyl])G-NH2 [peptide of SEQ ID NO: 141] . Its measured EC50 (cAMP reporter) is 1

Where do the numbers come from? From patent US20120238493A1.
